# target system: phBCCPPurT (Pyrococcus horikoshii)
# Sequence (O58056 whole entry): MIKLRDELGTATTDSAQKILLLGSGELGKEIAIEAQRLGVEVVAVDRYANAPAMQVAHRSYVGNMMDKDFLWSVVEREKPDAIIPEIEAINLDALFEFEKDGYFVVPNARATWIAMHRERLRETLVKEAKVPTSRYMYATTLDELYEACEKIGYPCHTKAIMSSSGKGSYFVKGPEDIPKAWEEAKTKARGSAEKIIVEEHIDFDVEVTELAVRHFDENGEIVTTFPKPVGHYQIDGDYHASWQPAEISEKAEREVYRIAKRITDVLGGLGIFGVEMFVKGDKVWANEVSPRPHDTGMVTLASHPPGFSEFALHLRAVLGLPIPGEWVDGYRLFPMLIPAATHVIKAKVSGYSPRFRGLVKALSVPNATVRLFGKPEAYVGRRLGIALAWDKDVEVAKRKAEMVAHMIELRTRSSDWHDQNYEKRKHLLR
outcome measure: pKd
Lab note: report pKd as minus log10 of the concentration in molar units, number only.

Task: Fill blank: measured pKd of the compound Nc1ncnc2c1ncn2[C@@H]1O[C@H](CO[P@](=O)(O)O[P@](=O)(O)O[P@@](=O)(O)S)[C@@H](O)[C@H]1O [ATPγS] is ____.
Output: 4.38
